Quick list: Selectivity ratio per entry.
# Organism: Homo sapiens
# ASSAY_PROTOCOL: Selectivity for factor 7a versus trypsin

COMPOUND | Selectivity ratio
COc1ccc(-c2cc(C(CC(=O)O)C(=O)O)cc(-c3nc4cc(C(=N)N)ccc4[nH]3)c2O)cc1 (stereo unspecified) | 1
N=C(N)c1ccc2[nH]c(-c3cc(C(CC(=O)O)C(=O)O)cc(-c4cccnc4)c3O)nc2c1 (stereo unspecified) | 31
N=C(N)c1ccc2[nH]c(-c3cc(C(CC(=O)O)C(=O)O)cc(-c4ccc(O)cc4)c3O)nc2c1 (stereo unspecified) | 10
N=C(N)c1ccc2[nH]c(-c3cc(C(CC(=O)O)C(=O)O)cc(-c4ccccc4CS)c3O)nc2c1 (stereo unspecified) | 103
N=C(N)c1ccc2[nH]c(-c3cc(C(CC(=O)O)C(=O)O)cc(-c4cccc(CN)c4)c3O)nc2c1 (stereo unspecified) | 18
N=C(N)c1ccc2[nH]c(-c3cc(C(CC(=O)O)C(=O)O)cc(-c4cc(Cl)cc(Cl)c4)c3O)nc2c1 (stereo unspecified) | 98
